Recorded CC50, one value per entry.
# Tested on: U1 cells
# method notes: MTS staining for cell viability in U1 cell assay
# Assay type: cell-based
# particulars: analogs, Table 8, MTS, read-out: TC50 (the source's name)

compound	readout unit	censoring qualifier	CC50
COc1ccc(-c2cnc(OC(C)(C)C)nc2OC(C)(C)C)cc1 [Compound 618]	µM	=	53.6
Oc1nc(S)nc(O)c1-c1ccccc1 [Compound 613]	µM	>	75
CCOC(=O)c1c(C)nc2sc(C(N)=O)c(N)c2c1-c1ccccc1 [Compound 338]	µM	>	75
NC(=O)c1sc2nc3ccccc3cc2c1N [Compound 337]	µM	>	75
Cc1ccc2c(N)c(C(N)=O)sc2n1 [Compound 314]	µM	>	75
Fc1ccccc1-c1nc(Nc2cccc(C(F)(F)F)c2)c2ccccc2n1 [Compound 748]	µM	=	33
Cc1n[nH]c2nc3ccc(Cl)cc3c(-c3ccccc3)c12 [Compound 111]	µM	>	50
Brc1ccc(Nc2nc(-c3ccncc3)nc3ccccc23)cc1 [Compound 734]	µM	>	12.5
Cc1n[nH]c2nc3ccc(Br)cc3c(-c3ccccc3)c12 [Compound 112]	µM	>	50
COc1ccc(Nc2nc(-c3ccccc3F)nc3ccccc23)cc1 [Compound 749]	µM	=	19.5
CC(=O)Nc1ccc(Nc2nc(-c3ccccc3)nc3ccccc23)cc1 [Compound 754]	µM	=	15.1
N#Cc1c(C(F)(F)F)nc2ccc(F)cc2c1N [Compound 212]	µM	=	28.6
Cc1cc(C(F)(F)F)c2c(N)c(C(N)=O)sc2n1 [Compound 318]	µM	>	75
COC(=O)c1ccc(Nc2nc(-c3ccccc3Cl)nc3ccccc23)cc1 [Compound 728]	µM	=	17.5

###

# Test system: U1 cells
# method notes: MTS staining for cell viability in U1 cell assay
# Assay type: cell-based
# particulars: analogs, Table 8, MTS, read-out: TC50 (the source's name)

chemical smiles	CC50
CC(=O)c1ccc(Nc2nc(-c3ccccc3)nc3ccccc23)cc1	> 75 µM
Cc1ccc(Nc2ncnc3ccccc23)cc1C	> 75 µM
Cc1cc2c(N)c(C(N)=O)sc2nc1C	37 µM
O=C(NCc1ccccn1)c1cc(Cl)nnc1Cl	> 75 µM
NC(=O)c1sc2nc(-c3cccnc3)ccc2c1N	> 75 µM
CSc1ncc2c(n1)[nH]c1ccccc12	> 75 µM
O=C(Nc1cccc(C(F)(F)F)c1)c1sc(Cl)nc1C(F)(F)F	14.7 µM
Cc1ccc(NC(=O)c2sc(Cl)nc2-c2ccccc2)cc1C	> 75 µM
COc1ccccc1NC(=O)c1cc(Cl)nnc1Cl	17.3 µM
COc1ccccc1Nc1nc(-c2ccccc2O)nc2ccccc12	> 75 µM
Oc1nc(S)ncc1-c1ccccc1	> 75 µM
Nc1c2c(nc3ccc([N+](=O)[O-])cc13)CCCC2=O	58.6 µM
CN1CCN(C(=O)c2cc(Cl)nnc2Cl)CC1	> 75 µM
CCc1c(C)nc2sc(C(=O)c3ccc(Cl)cc3)c(N)c2c1C	> 50 µM
